We begin with a simple list: items and their reported pKd.
Target: Inadl_3, Q8NI35
Sequence (Q8NI35 359-469): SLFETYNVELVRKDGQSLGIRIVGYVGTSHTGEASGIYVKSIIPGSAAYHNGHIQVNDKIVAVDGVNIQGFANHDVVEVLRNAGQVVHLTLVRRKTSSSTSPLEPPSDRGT
Assay: holdup assay
Design: key: below the threshold = too weak to quantify, mostly under pKd 3.1 to 4
Conditions: plain residues with an end cap or a label only (N-terminal biotin on a linker: ado-ado)
Keep the answer to the number alone.

QKNKDREYYV [NRXN3, Q9HDB5]	4.14
GQNMTVSVVI [PRLHR, P49683]	4.52
SGDGKTSVWI [GJC1, P36383]	3.69

Kindly review the next binder as well.
Fill blank: measured pKd of the binder PLPPEEESWV [GAS2L2, Q8NHY3] is ____.
3.78
